target_or_test_system: S1P1 (Homo sapiens)
Construct: expressed in transfected cells; host or cells: CHO cells (membranes)
Sequence (P21453 whole entry, species assumed): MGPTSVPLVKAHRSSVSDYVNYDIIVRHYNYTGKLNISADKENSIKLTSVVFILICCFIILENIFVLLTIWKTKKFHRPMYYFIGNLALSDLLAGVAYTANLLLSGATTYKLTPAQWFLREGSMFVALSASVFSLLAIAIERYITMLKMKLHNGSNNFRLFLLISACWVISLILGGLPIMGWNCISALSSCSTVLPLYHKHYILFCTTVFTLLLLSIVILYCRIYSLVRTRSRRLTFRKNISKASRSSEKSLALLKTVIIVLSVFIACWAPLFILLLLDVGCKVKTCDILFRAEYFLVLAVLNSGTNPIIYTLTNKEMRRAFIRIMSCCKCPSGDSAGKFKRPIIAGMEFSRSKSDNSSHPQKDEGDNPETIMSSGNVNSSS
test_description: 35S-GTPγS binding, S1P1 membranes
Format: biochemical
stated_conditions: membranes from CHO cells expressing S1P1; 60 min 30° C.
pEC50: −log10 of the molar value. Counter-ions that a name gives are not always drawn.
Please use Yes whenever pEC50 is not below 8, and No whenever it is.

| compound | target_or_test_system | category_label |
| --- | --- | --- |
| CC1CCCCN1c1ccc(-c2nc(-c3ccc(S(N)(=O)=O)cc3)no2)cc1C(F)(F)F (centres unmarked) | S1P1 (Homo sapiens) | Yes |
| COCc1cc(-c2nc(-c3cccc(COCCO)c3)no2)ccc1-c1ccccc1C | S1P1 (Homo sapiens) | Yes |
| Cc1cc(-c2nc(-c3ccc(C(=O)O)c(F)c3)no2)ccc1-c1ccccc1 | S1P1 (Homo sapiens) | No |
| CC1CCCCN1c1ccc(-c2nc(-c3ccc(C(=O)O)c(F)c3)no2)cc1C#N (centres unmarked) | S1P1 (Homo sapiens) | No |
| CC1CCCCN1c1ccc(-c2nc(-c3cccc(CN(C)CC(=O)O)c3)no2)cc1NS(C)(=O)=O (centres unmarked) [Example 57, Hydrochloride salt] | S1P1 (Homo sapiens) | Yes |
| CC1CCCCN1c1ccc(-c2nc(-c3ccc(C(=O)O)c(F)c3)no2)cc1NS(C)(=O)=O (centres unmarked) | S1P1 (Homo sapiens) | No |
| COCCN(C)Cc1cccc(-c2noc(-c3ccc(-c4ccccc4C)c(COC)c3)n2)c1 [Example 185, Hydrochloride salt] | S1P1 (Homo sapiens) | Yes |
| COCc1cc(-c2nc(-c3ccc(C(=O)NC4(C(=O)O)CC4)c(F)c3)no2)ccc1-c1ccccc1C | S1P1 (Homo sapiens) | No |
| COc1ccc(OC)c(-c2ccc(-c3nc(-c4ccc(C(=O)O)c(F)c4)no3)cc2C)c1 | S1P1 (Homo sapiens) | No |
| COCc1cc(-c2nc(-c3ccc(C(=O)O)c(F)c3)no2)ccc1-c1cccc(C)c1C | S1P1 (Homo sapiens) | No |
| Cc1ccccc1-c1ccc(-c2nc(-c3ccc(C(=O)O)c(F)c3)no2)cc1OCC1CC1 | S1P1 (Homo sapiens) | No |
| Cc1ccccc1-c1ccc(-c2nc(-c3ccc(C(=O)O)cc3)no2)cc1C | S1P1 (Homo sapiens) | No |

---

Recorded EC50 values for a group of compounds are listed next.
target_or_test_system: S1P1 (Homo sapiens)
test_description: 35S-GTPγS binding, S1P1 membranes
stated_conditions: membranes from CHO cells expressing S1P1; 60 min 30° C.
Structures can show the parent of a compound that is named as a salt.

| compound | EC50 |
| --- | --- |
| CCOc1cc(-c2nc(-c3ccc(C(=O)O)c(F)c3)no2)ccc1-c1ccccc1C | 58 nM |
| CC(=O)Nc1cc(-c2nc(-c3ccc(C(=O)O)c(F)c3)no2)ccc1N1CCCCC1C (stereo not shown) | 10400 nM |
| COc1ccc(-c2ccc(-c3nc(-c4ccc(C(=O)O)c(F)c4)no3)cc2C)c(OC)c1 | 10900 nM |
| CCc1ccccc1-c1ccc(-c2nc(-c3ccc(OCCCC(=O)O)c(F)c3)no2)cc1COC | 5 nM |
| CCc1cnc(CCNC(=O)c2ccc(-c3noc(-c4ccc(-c5ccccc5C)c(COC)c4)n3)cc2F)o1 | 197 nM |
| Cc1ccccc1-c1ccc(-c2nc(-c3ccc(C(=O)O)c(F)c3)no2)cc1COCC(C)C | 3700 nM |
| Cc1cc(-c2nc(-c3ccc(C(=O)O)cc3F)no2)ccc1-c1cscc1C | 360 nM |
| COCc1cc(-c2nc(-c3cccc(C(=O)NCCC(=O)O)c3)no2)ccc1-c1ccccc1C | 7.8 nM |
| COCc1cc(-c2nc(-c3ccc(C(=O)NCCC(=O)OC)c(F)c3)no2)ccc1-c1ccccc1C | 9 nM |
| CNCc1cc(-c2nc(-c3ccc(C(=O)O)c(F)c3)no2)ccc1-c1ccccc1C [Example 77, Hydrochloride salt] | 2900 nM |
| COc1ccccc1-c1ccc(-c2nc(-c3ccc(C(=O)O)c(F)c3)no2)cc1C | 924 nM |
| CC(C)COc1ccc(-c2nc(-c3ccc(C(=O)O)c(F)c3)no2)cc1NS(C)(=O)=O | 4720 nM |
| CC(C)COc1ncc(-c2nc(-c3ccc(C(=O)O)c(F)c3)no2)cc1Cl | 4990 nM |

Cited source: patent US8202865B2
